test: HepG2 cytotoxicity screening (CellTiter-Glo); type: cell-based; conditions: human, HepG2 cells; 50% decrease in viable cells after 72 h
TEST READOUT: IC50 at 72 h (µM)

>>> number("O=C(/C=C/c1cccnc1)c1ccccc1O")
22
>>> number("O=C(/C=C/c1cccnc1)c1ccc2ccc3cccc4ccc1c2c34")
1.8
>>> number("O=C(/C=C/c1cccnc1)c1c2ccccc2cc2ccccc12")
2.7
>>> number("Oc1ccccc1C1=NNC(c2ccc(Br)cc2)C1 (stereo not shown)")
24.5
>>> number("O=C(/C=C/c1ccc(Br)cc1)c1ccccc1O")
14
>>> number("O=C(/C=C/c1cn(-c2ccccc2)nc1-c1ccccc1)c1ccccc1O")
74
>>> number("O=C(/C=C/c1cccnc1)c1ccc(-c2ccccc2)cc1")
4.5
>>> number("COc1cccc(C(=O)/C=C/c2ccc(Cl)cc2)c1")
13
>>> number("Oc1ccccc1C1=NNC(c2cn(-c3ccccc3)nc2-c2ccccc2)C1 (stereo not shown)")
46.5
